target-entity: EGFR (D746-750) (Homo sapiens, UniProt P00533, DEL746-750)
Sequence (P00533 with tags, fused parts or gaps DEL746-750): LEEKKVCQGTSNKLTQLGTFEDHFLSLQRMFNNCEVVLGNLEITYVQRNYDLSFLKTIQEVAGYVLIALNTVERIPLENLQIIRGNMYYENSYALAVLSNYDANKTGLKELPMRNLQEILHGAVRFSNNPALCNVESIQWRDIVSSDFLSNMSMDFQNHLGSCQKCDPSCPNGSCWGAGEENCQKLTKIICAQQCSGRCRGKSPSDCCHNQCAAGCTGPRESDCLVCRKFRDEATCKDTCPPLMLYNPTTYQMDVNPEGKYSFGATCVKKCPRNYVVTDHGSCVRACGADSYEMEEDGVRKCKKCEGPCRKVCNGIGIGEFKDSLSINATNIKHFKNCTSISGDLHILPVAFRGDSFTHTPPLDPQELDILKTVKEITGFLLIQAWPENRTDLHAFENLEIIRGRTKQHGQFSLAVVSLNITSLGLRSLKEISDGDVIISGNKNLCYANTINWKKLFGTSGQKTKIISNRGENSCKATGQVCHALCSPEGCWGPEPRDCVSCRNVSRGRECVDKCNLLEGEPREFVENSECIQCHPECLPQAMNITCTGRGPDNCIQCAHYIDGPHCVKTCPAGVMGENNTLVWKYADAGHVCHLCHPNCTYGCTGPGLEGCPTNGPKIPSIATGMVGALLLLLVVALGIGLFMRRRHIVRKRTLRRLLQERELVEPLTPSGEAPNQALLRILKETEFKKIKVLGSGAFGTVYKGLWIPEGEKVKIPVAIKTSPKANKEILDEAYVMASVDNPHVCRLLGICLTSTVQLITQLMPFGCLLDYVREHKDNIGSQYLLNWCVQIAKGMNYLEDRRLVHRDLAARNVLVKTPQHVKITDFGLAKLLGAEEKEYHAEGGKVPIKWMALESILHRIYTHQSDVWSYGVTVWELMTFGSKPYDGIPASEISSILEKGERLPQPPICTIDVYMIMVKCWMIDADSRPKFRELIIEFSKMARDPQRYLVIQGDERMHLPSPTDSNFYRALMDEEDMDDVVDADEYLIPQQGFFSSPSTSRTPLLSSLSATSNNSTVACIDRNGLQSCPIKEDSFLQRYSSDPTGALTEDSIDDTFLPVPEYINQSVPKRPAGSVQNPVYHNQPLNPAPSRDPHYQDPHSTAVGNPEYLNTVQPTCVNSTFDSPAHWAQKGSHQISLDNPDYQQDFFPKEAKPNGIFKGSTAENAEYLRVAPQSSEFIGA
measurement-protocol: HotSpot radiometric kinase assay, inhibition of EGFR 746-750 mutant
stated-conditions: 33P ATP, room temperature, 120 m
observable: IC50 (nM)

Known IC50 results, listed for orientation:
CCOc1nn([C@@H](C)CO)c2c1/C=C/c1n[nH]c3cnc(cc13)-c1c(C)nn(C)c1O[C@@H](C)CN(CC)C2 [Ex. 26]    0.73
CCOc1nn([C@@H](C)CO)c2c1/C=C/c1n[nH]c3cnc(cc13)-c1cnn(C)c1O[C@@H](C)CN(C)C2 [Ex. 19]    0.14
CCOc1nn(CCO)c2c1/C=C/c1n[nH]c3cnc(cc13)-c1c(C)nn(C)c1O[C@H](C)[C@H]1CCCN1C2 [Ex. 33]    0.15
CCOc1nn([C@@H](C)CO)c2c1/C=C/c1n[nH]c3cnc(cc13)-c1c(C)nn(C)c1O[C@@H](C)CN(C)C2 [Ex. 27]    0.28
CCOc1nn(CCO)c2c1/C=C/c1n[nH]c3c(C)nc(cc13)-c1cnn(C)c1O[C@@H](C)CN(CC)C2 [Ex. 28]    0.37
Cc1nn(CCO)c2c1/C=C/c1n[nH]c3cnc(cc13)-c1c(C)nn(C)c1O[C@H](C)CN(C(C)C)C2 [Ex. 20]    0.27

(a) Cc1nn(CCO)c2c1/C=C/c1n[nH]c3cnc(cc13)-c1c(C)nn(C)c1O[C@@H](C)CN(C)C2 [Ex. 41]
(b) CCOc1nn([C@@H](C)CO)c2c1/C=C/c1n[nH]c3c(C)nc(cc13)-c1c(C)nn(C)c1O[C@H](C)[C@H]1CCCN1C2 [Ex. 180]
(c) Cc1nn(C)c2c1-c1cc3c(n[nH]c3cn1)/C=C/c1c(OCC#N)nn([C@@H](C)CO)c1CN(C)C[C@H](C)O2 [Ex. 53]
(d) CCc1nn(CCO)c2c1/C=C/c1n[nH]c3cnc(cc13)-c1c(C)nn(C)c1O[C@@H](C)CN(C)C2 [Ex. 60]
(e) CCOc1nn(CCO)c2c1/C=C/c1n[nH]c3cnc(cc13)-c1c(c(C)nn1C)OCCN(C)C2 [Ex. 69]
hey, can you rank those compounds up there by IC50? biggest number first please List the labels in the requested order. e, d, c, b, a
(e: 1.87 nM, d: 0.54 nM, c: 0.37 nM, b: 0.21 nM, a: 0.08 nM)

(P) CC(C)Oc1nn(CCO)c2c1/C=C/c1n[nH]c3cnc(cc13)-c1cnn(C)c1O[C@@H](C)CN(C)C2 [Ex. 5]
(Q) CCOc1nn(CCO)c2c1/C=C/c1n[nH]c3c(C)nc(cc13)-c1cnn(C)c1O[C@H](C)CN(CC)C2 [Ex. 37]
(R) CCOc1nn(CCO)c2c1/C=C/c1n[nH]c3cnc(cc13)-c1c(C)nn(C)c1O[C@@H](C)CN(C(C)C)C2 [Ex. 8]
hey, can you rank those compounds up there by IC50? biggest number first please List the labels in the requested order. R, Q, P

(A) CCOc1nn([C@@H](C)CO)c2c1/C=C/c1n[nH]c3cnc(cc13)-c1c(C)nn(C)c1OC[C@H]1CCCN1C2 [Ex. 65]
(B) CCOc1nn(CCO)c2c1/C=C/c1n[nH]c3cnc(cc13)-c1c(C)nn(C)c1OCCN(C)C2 [Ex. 68]
Could you tell me which of A and B has the lower IC50 reading? To answer, give the label that identifies your chosen option. B
